Entry source: the CombiSolv-Exp solvation set (Vermeire and Green 2021)

assay: solvent given as SMILES; conditions: in COCCOCCOCCOC
Reported solvation free energy, 298 K values for the following compounds.
readout: solvation free energy, 298 K (kcal/mol)

INSERT INTO measurements (structure, readout, val) VALUES
  ('C=C', 'solvation free energy, 298 K', -0.25),
  ('O=S=O', 'solvation free energy, 298 K', -3.89),
  ('S', 'solvation free energy, 298 K', -1.84),
  ('O=C=O', 'solvation free energy, 298 K', -0.7),
  ('C#CC', 'solvation free energy, 298 K', -2.03);

====

assay: solvent given as SMILES; conditions: in ClCCCl
readout: solvation free energy, 298 K (kcal/mol)

INSERT INTO assay_data (structure, readout, val) VALUES
  ('O=S=O', 'solvation free energy, 298 K', -2.55),
  ('O=C1CCCCC1', 'solvation free energy, 298 K', -6.78),
  ('C=C', 'solvation free energy, 298 K', -0.49),
  ('Cc1ccccc1C', 'solvation free energy, 298 K', -6.13),
  ('c1cc2c3c(cccc3c1)CC2', 'solvation free energy, 298 K', -9.78),
  ('CC(C)(C)Cl', 'solvation free energy, 298 K', -3.69);

====

Reported solvation free energy, 298 K values for the following compounds.
test: solvent given as SMILES; details: in CCOCC
readout: solvation free energy, 298 K (kcal/mol)

INSERT INTO measurements (structure, val) VALUES
  ('O=O', 0.48),
  ('ClCCCl', -4.45),
  ('c1ccc2c(c1)Nc1ccccc1S2', -13.5),
  ('O=C(O)c1cc([N+](=O)[O-])cc([N+](=O)[O-])c1', -13.9),
  ('Fc1c(F)c(F)c(F)c(F)c1F', -4.35),
  ('O=C(C(=O)c1ccccc1)c1ccccc1', -11.8),
  ('O=C(O)c1cccc(Cl)c1', -10.5),
  ('Cc1ccccc1', -5.12),
  ('C=C', -0.97),
  ('ClC(Cl)(Cl)Cl', -4.41),
  ('O=[N+]([O-])c1ccc(CCl)cc1', -9.26),
  ('O=C(O)c1cccnc1Nc1cccc(C(F)(F)F)c1', -16.5),
  ('CCCCCCCCCCCCCCCCCCO', -15),
  ('CC(=O)Oc1ccccc1C(=O)O', -13.2),
  ('COC(=O)c1ccc(O)cc1', -11.7),
  ('CC(C)CC(C)C', -4.19),
  ('c1ccc2c(c1)-c1cccc3cccc-2c13', -12.4);

====

experiment: solvent given as SMILES; settings: in CCCCCC
Assign a class from recorded solvation free energy, 298 K; defined classes: Low = under -8 kcal/mol, Mid = from -8 kcal/mol up to -4 kcal/mol, High = -4 kcal/mol and over

INSERT INTO results (structure, group_label) VALUES
  ('O=c1c2ccccc2sc2ccccc12', 'Low'),
  ('Nc1cccc2ccccc12', 'Low'),
  ('Oc1ccc(O)cc1', 'Mid'),
  ('c1ccc2c(c1)Cc1ccccc1O2', 'Low'),
  ('CCBr', 'High'),
  ('[N-]=[N+]=O', 'High'),
  ('ClCCCl', 'High'),
  ('CCCO', 'High'),
  ('CC(C)CO', 'High'),
  ('COc1ccc(O)cc1', 'Mid');
